# MEASUREMENT DESCRIPTION: Metabolic stability: % of test substance remaining after incubation with mouse liver homogenate
# Format: in vitro ADME
# CONDITION SET: amount not catabolized, in % of the zero value; 120 minutes, 37° C., pH 7.3; NMRI mouse liver homogenate; HPLC; read-out: % Radical after incubation with mouse liver homogenate
MEASURED PROPERTY: remaining at 2 h (%)
Respond with the bare value in %.

Consider the following illustrative entries.
> print(dat)
                                   compound  test.value
1  CCc1nc(-c2ncn(-c3cccc(Oc4ccccc4)c3)c2C)no1 [A, reference compound]          31
2  CCc1cc(-c2ncn(-c3cccc(Oc4ccccc4)c3)c2C)no1          71

input: Indicate its recorded remaining at 2 h; the compound in question is CCc1cc(-c2ncn(-c3cccc(Oc4ccccc4)c3)c2C)on1
output: 95

input: Tell us which remaining at 2 h value is on record for COCc1cc(-c2ncn(-c3cccc(Oc4ccccc4)c3)c2C)on1
output: 100
